- assay remarks: in vitro
- test parameters: rabbit, Ptot (apparent permeability coefficient) [corneal permeability]
observable: Papp at 120 min, 100 mM

| structure notation | reading |
| --- | --- |
| CC(CO)(CO)[N+](=O)[O-] | 4.37 ×10⁻⁶ cm/s |
